Origin of the recorded values: patent US6444812B1

Provide the reported melting point of each item.
Give bare numbers, in °C.

{"Compound": "O=C1CC(c2cccc(Cl)c2)c2cc(C(c3ccc(Cl)cc3)n3ccnc3)cc3c2N1CCC3 (racemic) [Compound 37]", "Unit abbreviation": "°C", "melting point": 93.6}
{"Compound": "Cn1cncc1C(O)(c1ccc(Cl)cc1)c1cc2nnn3c(=O)cc(-c4cccc(Cl)c4)c(c1)c23 (racemic) [Compound 35]", "Unit abbreviation": "°C", "melting point": 226}
{"Compound": "Cc1nc2cc(C(O)(c3ccc(Cl)cc3)c3cncn3C)cc3c(-c4cccc(Cl)c4)cc(=O)n1c23 (racemic) [Compound 30]", "Unit abbreviation": "°C", "melting point": 170}
{"Compound": "Cn1cncc1C(O)(c1ccc(Cl)cc1)c1cc2c3c(c1)c(-c1cccc(Cl)c1)cc(=O)n3CC2 (racemic) [Compound 5]", "Unit abbreviation": "°C", "melting point": 213.6}

Okay, next one:
Prompt: Consider the compound Cn1cncc1C(c1ccc(Cl)cc1)c1cc2c3c(c1)c(-c1cccc(Cl)c1)cc(=O)n3CC2.O (racemic) (hydrate or solvate) [Compound 6] and give its measured melting point.
Response: 147
